- target.desc: biotinylated human PCSK9 (UniProt Q8NBP7 31-692, biotinylated (sites not given))
- protocol.text: competition binding ELISA (PCSK9-LDLR)
pIC50: −log10 of the molar value.
// reported pIC50 for each item listed
measured.quantity: pIC50

binder="YW508.20.06 (antibody, V domains shown) VH: EVQLVESGGGLVQPGGSLRLSCAASGFTFTGYAIHWVRQAPGKGLEWVARISPANGNTNYADSVKGRFTISADTSKNTAYLQMNSLRAEDTAVYYCARWIGSRELYIMDYWGQGTLVTVSS VL: DIQMTQSPSSLSASVGDRVTITCRASQDVSTAVAWYQQKPGKAPKLLIYSASFLYSGVPSRFSGSGSGTDFTLTISSLQPEDFATYYCQQSYPSPATFGQGTKVEIKR" numeric_readout=9.00
binder="YW508.20.04 (antibody, V domains shown) VH: EVQLVESGGGLVQPGGSLRLSCAASGFTFTGYAIHWVRQAPGKGLEWVGRISPANGNTNYADSVKGRFTISADTSKNTAYLQMNSLRAEDTAVYYCARWIGSRELYIMDYWGQGTLVTVSS VL: DIQMTQSPSSLSASVGDRVTITCRASQDVSTAVAWYQQKPGKAPKLLIYSASFLYSGVPSRFSGSGSGTDFTLTISSLQPEDFATYYCQQSYPAPATFGQGTKVEIKR" numeric_readout=9.04
binder="YW508.20.28 (antibody, V domains shown) VH: EVQLVESGGGLVQPGGSLRLSCAASGFTFTRHTIHWVRQAPGKGLEWVARISPANGNTNYADSVKGRFTISADTSKNTAYLQMNSLRAEDTAVYYCARWIGSRELYIMDYWGQGTLVTVSS VL: DIQMTQSPSSLSASVGDRVTITCRASQDVSTAVAWYQQKPGKAPKLLIYSASFLYSGVPSRFSGSGSGTDFTLTISSLQPEDFATYYCQQSYRIQPTFGQGTKVEIKR" numeric_readout=8.98
binder="YW508.20.33 (antibody, V domains shown) VH: EVQLVESGGGLVQPGGSLRLSCAASGFTFSSTAIHWVRQAPGKGLEWVARISPANGNTNYADSVKGRFTISADTSKNTAYLQMNSLRAEDTAVYYCARWIGSRELYIMDYWGQGTLVTVSS VL: DIQMTQSPSSLSASVGDRVTITCRASQDVSTAVAWYQQKPGKAPKLLIYSASFLYSGVPSRFSGSGSGTDFTLTISSLQPEDFATYYCQQSYPALHTFGQGTKVEIKR" numeric_readout=8.88
